Test system: SK-MEL-2 melanoma
assay-text: NCI tumour cell line growth inhibition, 48 h
What TGI was measured for each of the following?
State just the number; it will be interpreted in µM.

// sample COC(=O)C1=C(OC(=O)/C=C/c2ccc(Cl)cc2)C(C(=O)OC)[C@@]2(O)[C@@H](C(=O)OC)[C@H](C)C[C@@H]1[C@@H]2C(=O)OC (stereo not given in full) , its TGI was 37

What the record says about "COc1cc2c(cc1OCCCCOc1cc3c(cc1OC)C(=O)N1CCC[C@H]1C(=O)N3)N=C[C@@H]1CCCN1C2=O" : TGI is 20.1

Looking up "CN(Cc1cc(Cl)cc(Cl)c1O)Cc1c(O)ccc2ccccc12" , I found its TGI recorded as 35.8

For CC1CCC2(CC1)NC1=C(CC(C)CC1)C1=C2CC(C)CC1 (stereo not given) the molecule record lists TGI as 57.8

response.value for "Cc1nnc(N)nc1/C=C/c1c(O)ccc2ccccc12" (field: TGI) = 35.5

# molecule COc1cc(C2C(Cl)C(=O)N2NC(=O)c2ccc(N)cc2)cc(Br)c1O (stereo not given) ; its TGI = 32.3

The reported TGI of the molecule "O=Cc1ccc(CCl)cc1" was 32.2

Just so you know, measured TGI for COc1ccc(C2C3CCc4ccccc4C3=NN2S(=O)(=O)c2ccc(/C=C/C(=O)O)cc2)cc1 (stereo not given) came out at 9.79
